Values were extracted from the supplement of paper PMC7455731.

collision cross section for assorted molecules
Assay: collision cross section (DTIM-MS, N2); higher = larger ion
Conditions: ion adduct: [M-H]-
Answer format: numeric, Å² implied, no suffix.

Some molecules with known collision cross section results, for comparison:
CC(C)C1=CC2=CC[C@@H]3[C@](C)(CCC[C@@]3(C)C(=O)O)[C@H]2CC1 [Abietic acid]; 185.72
CC(C)(C)[C@]1(O)C[C@@H]2OC(=O)C[C@@]23C(=O)O[C@@H]2OC(=O)[C@H](O)[C@]213 [(-)-Bilobalide]; 162.4
COc1cc(NS(C)(=O)=O)ccc1Nc1c2ccccc2nc2ccccc12 [Amsacrine]; 199.97
COc1ccc(C[C@H]2COC(=O)[C@@H]2Cc2ccc(O[C@@H]3O[C@H](CO)[C@@H](O)[C@H](O)[C@H]3O)c(OC)c2)cc1OC [Arctiin]; 220.58
CCC(=O)c1ccc(O)cc1 [Vanatone]; 131.83

For the molecule shown here, c1ccc2c(c1)Nc1ccccc1S2 [Phenothiazine] , give the reported collision cross section. 140.54

Could you do the same for C[C@@]12CCC3[C@@](CC[C@@H]4[C@](C)(C(=O)O)CCC[C@@]34C)(CC1=O)C2 (stereo partly specified) [Isosteviol] , please? 180.18

Would you mind doing O=c1[nH]c(=O)n(C2CCCO2)cc1F (stereo unspecified) [Tegafur] as well? 142.34

---

Assay: collision cross section (DTIM-MS, N2); higher = larger ion
Conditions: ion adduct: [M-H]-
Binary classification by collision cross section, with 200 Å² as an inclusive lower bound for Criterion met; all other cases are Criterion not met.

COc1ccc(-c2cc(=O)c3c(O)cc(O)c(-c4cc(-c5cc(=O)c6c(O)cc(O)cc6o5)ccc4OC)c3o2)cc1; Criterion met
CC(C)=CCC[C@](C)(O[C@@H]1O[C@H](CO)[C@@H](O)[C@H](O)[C@H]1O)[C@H]1CC[C@]2(C)[C@@H]1[C@H](O)C[C@@H]1[C@@]3(C)CC[C@H](O)C(C)(C)[C@@H]3CC[C@]12C [Ginsenoside Compound K]; Criterion met
O=C(N[C@H](CO)[C@H](O)c1ccc([N+](=O)[O-])cc1)C(Cl)Cl; Criterion not met
O=C(O)c1ccccc1O; Criterion not met
CC1=CC23C(=O)C(C=C(CO)C(O)C2(O)C1O)C1C(CC3C)C1(C)C (configuration not stated); Criterion not met
COC(=O)/C=C/c1ccc(O)cc1 [Methyl 4-hydroxycinnamate]; Criterion not met

Does O=C(C=CC=Cc1ccccc1)CCc1ccccc1 have a reported collision cross section of at least 200 Å²? Criterion not met

---

Assay: collision cross section (DTIM-MS, N2); higher = larger ion
Details: ion adduct: [M-H]-
recorded metric: collision cross section (Å²)
Give just the number in Å²; leave the unit off.

Sample answers from the record:
NC(=O)c1ncn([C@@H]2O[C@H](CO)[C@@H](O)[C@H]2O)c1O [Mizoribine]; 155.14
Nc1nc(Cl)nc2c1ncn2[C@@H]1O[C@H](CO)[C@@H](O)[C@@H]1F [Clofarabine]; 162.03
C=C1C[C@]23C[C@@]1(O)CC[C@H]2[C@@]12C=C[C@H](O)[C@@](C)(C(=O)O1)[C@H]2[C@@H]3C(=O)O [Gibberellic acid]; 177.69
COc1cc2oc(-c3ccc(O)cc3)cc(=O)c2c(O)c1C1OC(CO)C(O)C(O)C1OC1OC(CO)C(O)C(O)C1O (stereo not drawn) [Spinosin]; 239.41
CCCCC[C@H](O)CC(=O)CCc1ccc(O)c(OC)c1 [6-Gingerol]; 170.04
COc1cc(CCC(=O)CC(=O)CCc2ccc(O)c(OC)c2)ccc1O [Tetrahydrocurcumin]; 185.55

What value of collision cross section has been reported for the following compound? CC(/C=C/C=C(\C)C(=O)O[C@@H]1O[C@H](CO)[C@@H](O)[C@H](O)[C@H]1O)=C\C=C\C=C(C)\C=C\C=C(/C)C(=O)O[C@@H]1O[C@H](CO[C@@H]2O[C@H](CO)[C@@H](O)[C@H](O)[C@H]2O)[C@@H](O)[C@@H](O)[C@H]1O [Crocin II] 280.87

# iterate: C[C@H]1[C@H](OC(=O)CCC(=O)O)O[C@@H]2O[C@@]3(C)CC[C@H]4[C@H](C)CC[C@@H]1[C@@]24OO3 [Artesunate] 185.75

Subsequent entry: CC1(C)[C@@H](O[C@H]2O[C@H](C(=O)O)[C@@H](O)[C@H](O)[C@H]2OC2O[C@H](C(=O)O)[C@@H](O)[C@H](O)[C@H]2O)CC[C@]2(C)[C@H]3C(=O)C=C4[C@@H]5C[C@@](C)(C(=O)O)CC[C@]5(C)CC[C@@]4(C)[C@]3(C)CC[C@@H]12 (stereo partly drawn) [Glycyrrhizic acid] 281.13

Here is the next compound: COc1cc(C(C)=O)ccc1O [Acetovanillone] 133.81

Next entry: COc1ccc(-c2cc(=O)c3c(O)cc(O)c(-c4cc(-c5cc(=O)c6c(O)cc(OC)cc6o5)ccc4OC)c3o2)cc1 [Sciadopitysin] 235.5

Moving on to the next compound: COc1cc(C(=O)O)cc(OC)c1O [Syringic acid] 148.59

Request: O=C(Nc1ccccc1)c1ccccc1I [Benodanil] 156.05

---

Test: collision cross section (DTIM-MS, N2); higher = larger ion
Conditions: ion adduct: [M-H]-
recorded metric: collision cross section (Å²)
API: value field is a number in Å²; no unit string.

Here's what some known entries look like.
C=CC[C@@H]1/C=C(/C)C[C@H](C)C[C@H](OC)[C@H]2O[C@@](O)(C(=O)C(=O)N3CCCC[C@H]3C(=O)O[C@H](/C(C)=C/[C@@H]3CC[C@@H](O)[C@H](OC)C3)[C@H](C)[C@@H](O)CC1=O)[C@H](C)C[C@@H]2OC; 281.46
C/C=C1/[C@H](O[C@@H]2O[C@H](CO)[C@@H](O)[C@H](O)[C@H]2O)OC=C(C(=O)OC)[C@H]1CC(=O)OCCc1ccc(O)c(O)c1; 217.92
CCCCCCCC(O)CC(=O)CCc1ccc(O)c(OC)c1 (configuration not stated); 178.08
C=C[C@](C)(O)CC[C@@H]1[C@@]2(C)CCCC(C)(C)[C@@H]2CC[C@@]1(C)O; 178.93
COc1cc(O)cc(/C=C/c2ccc(O)cc2)c1; 166.26

Fill blank: measured collision cross section of the compound COc1ccc(-c2cc(=O)c3c(O)cc(O)cc3o2)cc1-c1c(O)cc(O)c2c(=O)cc(-c3ccc(O)cc3)oc12 is ____. 221.44

Would you kindly repeat that for CC=Cc1ccc(O)c(OC)c1 ? 138.02

---

Test: collision cross section (DTIM-MS, N2); higher = larger ion
Conditions: ion adduct: [M-H]-
recorded metric: collision cross section (Å²)
Give the value, in units of Å², as a plain number.

A selection of reference data follows.
Cn1cncc1[C@@](N)(c1ccc(Cl)cc1)c1ccc2c(c1)c(-c1cccc(Cl)c1)cc(=O)n2C [Tipifarnib]; 215.68
COc1c(C=CC(=O)c2ccc(O)cc2)ccc(O)c1O [Licochalcone B]; 171.14
CC(C)=CCC[C@](C)(O)[C@H]1CC[C@]2(C)[C@@H]1[C@H](O)C[C@@H]1[C@@]3(C)CC[C@H](O)C(C)(C)[C@@H]3CC[C@]12C [(20S)-Protopanaxdiol]; 222.94

// lookup collision cross section for CC1(C)CC[C@]2(C(=O)O[C@@H]3O[C@H](CO)[C@@H](O)[C@H](O)[C@H]3O)CC[C@]3(C)C(=CC[C@@H]4[C@@]5(C)CC[C@H](O[C@@H]6O[C@H](C(=O)O)[C@@H](O)[C@H](O)[C@H]6O[C@@H]6O[C@H](CO)[C@@H](O)[C@H](O)[C@H]6O)C(C)(C)[C@@H]5CC[C@]43C)[C@@H]2C1 [Ginsenoside Ro] 310.46

---

Assay: collision cross section (DTIM-MS, N2); higher = larger ion
Conditions: ion adduct: [M+H]+
recorded metric: collision cross section (Å²)
Respond numerically; units are Å² and should not be typed.

Cn1cncc1[C@@](N)(c1ccc(Cl)cc1)c1ccc2c(c1)c(-c1cccc(Cl)c1)cc(=O)n2C; 215.34
O=c1ccc2ccccc2o1; 124.69
CC(C)=C1C/C=C(\C)CC/C=C(\C)CC1=O; 149.53

Let's switch to this compound now.
Consider the compound C[C@H]1CC[C@]2(OC1)O[C@H]1C[C@H]3[C@@H]4CC=C5C[C@@H](O[C@@H]6O[C@H](CO)[C@@H](O[C@@H]7O[C@@H](C)[C@H](O)[C@@H](O)[C@H]7O)[C@H](O)[C@H]6O[C@@H]6O[C@@H](C)[C@H](O)[C@@H](O)[C@H]6O)CC[C@]5(C)[C@H]4CC[C@]3(C)[C@H]1[C@@H]2C and give its measured collision cross section. 330.49

---

Assay: collision cross section (DTIM-MS, N2); higher = larger ion
Details: ion adduct: [M+H]+
If the reported collision cross section equals or exceeds 200 Å², assign yes. If not, assign no.

Example cases with answers are listed next.
Cc1noc(NS(=O)(=O)c2ccc(N)cc2)c1C [Sulfisoxazole]; no
Cc1cc(O)c2c(c1)C(=O)c1cc(O)cc(O)c1C2=O [Emodin]; no
COc1cc([C@H]2Oc3cc([C@H]4Oc5cc(O)cc(O)c5C(=O)[C@@H]4O)ccc3O[C@@H]2CO)ccc1O [Silybin]; yes
Cc1cc(=O)oc2c([N+](=O)[O-])c(O)ccc12 [7-hydroxy-4-methyl-8-nitrocoumarin]; no

Assess whether reported collision cross section for C[C@@H]1C/C=C/C=C/C=C/C=C/[C@H](O[C@@H]2O[C@H](C)[C@@H](O)[C@H](N)[C@@H]2O)C[C@@H]2O[C@](O)(C[C@@H](O)C[C@H]3O[C@@H]3/C=C/C(=O)O1)C[C@H](O)[C@H]2C(=O)O [Pimaricin] sits at 200 Å² or higher. yes

Similarly, O=c1cc(-c2ccc(O)c(O)c2)oc2cc(O[C@@H]3O[C@H](CO)[C@@H](O)[C@H](O)[C@H]3O)cc(O)c12 [Luteolin-7-O-glucoside] ? yes

Item: COc1ccc(C=CC(=O)c2c(O)cc(OC)cc2OC)cc1 [Flavokawain A] no

Another: CO[C@H]1C=CO[C@@]2(C)Oc3c(C)c(O)c4c(O)c(c(/C=N/N5CCN(C)CC5)c(O)c4c3C2=O)NC(=O)/C(C)=C\C=C/[C@H](C)[C@H](O)[C@@H](C)[C@@H](O)[C@@H](C)[C@H](OC(C)=O)[C@@H]1C [Rifampicin] yes

Also need COc1c(O)c(C)cc2c1C(=O)c1c(O)cccc1C2=O [Obtusifolin] , thanks. no

Again, but for COc1cc(O)cc(O)c1C(=O)/C=C/c1ccccc1 [Cardamonin] no
